# EXPERIMENTAL_PROTOCOL: NCI Yeast Anticancer Drug Screen. Data for the sgs1 mgt1 strain (AID 161);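 note: 0% = growth of cultures given vehicle only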
# RUN_PARAMETERS: S. cerevisiae sgs1 mgt1 strain, at 5.0 µM (retest, dose inferred, filed as 0.5), stronger effect = higher value
The panel holds about 79,000 compounds, 15% with a hit somewhere; the sample as a whole holds those more often.
Listed next: entries and their corresponding growth inhibition.

{"MOLECULE": "CCC1(O)c2ccccc2C(O)(CC)c2ccccc21 (stereo unspecified)", "VALUE_UNITS": "%", "growth inhibition": 5}
{"MOLECULE": "C=C1C(=O)[C@]23C[C@H]1CC[C@H]2[C@@]12CO[C@@H](O)[C@@H]1C(C)(C)[C@@H](O)C[C@@H]2OC3=O", "VALUE_UNITS": "%", "growth inhibition": 9}
{"MOLECULE": "O=C(O)/C=C/C(=O)c1ccc(O)cc1", "VALUE_UNITS": "%", "growth inhibition": 28}
{"MOLECULE": "COc1cc([C@@H]2c3cc4c(cc3[C@@H](OC3OC5CO[C@@H](c6cccs6)OC5C(O)C3O)[C@H]3COC(=O)[C@H]23)OCO4)cc(OC)c1O (stereo partly specified)", "VALUE_UNITS": "%", "growth inhibition": 6}
{"MOLECULE": "COc1ccc(C(=O)CCc2c[nH]c3ccccc23)c(O)c1", "VALUE_UNITS": "%", "growth inhibition": 11}
{"MOLECULE": "O=C1CC2(CCN(CC3COc4ccccc4O3)CC2)C(=O)N1N1CCCCCC1 (stereo unspecified)", "VALUE_UNITS": "%", "growth inhibition": 62}
{"MOLECULE": "CC(=O)OC1OC2C(NC(=O)OC(C)(C)C)C1CC2(OCc1ccccc1)OCc1ccccc1 (stereo unspecified)", "VALUE_UNITS": "%", "growth inhibition": 29}
{"MOLECULE": "CCC(Sc1ccccc1[N+](=O)[O-])[N+](=O)[O-] (stereo unspecified)", "VALUE_UNITS": "%", "growth inhibition": 3}
{"MOLECULE": "CC1COC(=O)O1 (stereo unspecified)", "VALUE_UNITS": "%", "growth inhibition": 6}
{"MOLECULE": "COc1ccccc1NC(=O)/C(=C\\N1C(=O)/C(=C/c2cc(OC)c(OC)c(OC)c2)SC1=S)C(C)=O", "VALUE_UNITS": "%", "growth inhibition": -8}
{"MOLECULE": "O=C1C=CC(=O)c2cc(Sc3ccccc3)c(=O)ccc21", "VALUE_UNITS": "%", "growth inhibition": 25}
{"MOLECULE": "S=C(N/N=C/c1ccccn1)N1CCCCC1", "VALUE_UNITS": "%", "growth inhibition": 98}
{"MOLECULE": "CCOC(CN(C)C(=O)Nc1ccc(Cl)c(Cl)c1)OCC", "VALUE_UNITS": "%", "growth inhibition": -15}
{"MOLECULE": "O=C(C[n+]1ccccc1)c1ccc2ccc3ccc(Cl)cc3c2c1", "VALUE_UNITS": "%", "growth inhibition": 3}
{"MOLECULE": "O=C(OC12CCCCC1CCCC2)c1ccc([N+](=O)[O-])cc1 (stereo unspecified)", "VALUE_UNITS": "%", "growth inhibition": 32}
{"MOLECULE": "CC1NC(=O)OC1(C)c1ccccc1 (stereo unspecified)", "VALUE_UNITS": "%", "growth inhibition": 2}
{"MOLECULE": "Cc1c(NC(=O)/C(=N/NC(=S)N=N)C2C(=O)CC(C)(C)CC2=O)c(O)c2ccccc2c1O", "VALUE_UNITS": "%", "growth inhibition": 7}
{"MOLECULE": "CC(NCCO)c1ccc2ccccc2c1 (stereo unspecified)", "VALUE_UNITS": "%", "growth inhibition": -10}
{"MOLECULE": "Cc1cc2nc(CC(=O)c3ccc4ccccc4c3)c(=O)[nH]c2cc1C", "VALUE_UNITS": "%", "growth inhibition": -5}
{"MOLECULE": "CCN(CC)C(=S)N/N=C(/c1ccccc1)c1ccccn1", "VALUE_UNITS": "%", "growth inhibition": 44}
{"MOLECULE": "COc1ccc2c3c(c4cc(OC)c(OC)cc4c2c1)CN1CCC[C@H]1[C@@H]3O", "VALUE_UNITS": "%", "growth inhibition": 97}
{"MOLECULE": "COc1ccc2c(c1)OC(OC)(c1ccccc1)C(O)(OC)C2=O (stereo unspecified)", "VALUE_UNITS": "%", "growth inhibition": 3}
{"MOLECULE": "COc1cc(N=Nc2ccccc2)cc(/C=N/NC(N)=S)c1O", "VALUE_UNITS": "%", "growth inhibition": 9}
{"MOLECULE": "[N-]=[N+]=Nc1c(C=O)c(=O)n(-c2ccccc2)c2ccccc12", "VALUE_UNITS": "%", "growth inhibition": -5}
{"MOLECULE": "CCCCCCCCCCCC(=O)OCC(C)C", "VALUE_UNITS": "%", "growth inhibition": 0}
{"MOLECULE": "Nc1cc(S(=O)(=O)O)cc2cc(S(=O)(=O)O)c(N=Nc3ccccc3)c(O)c12", "VALUE_UNITS": "%", "growth inhibition": 0}
{"MOLECULE": "CCCCCOC(=O)C(C)SC#N (stereo unspecified)", "VALUE_UNITS": "%", "growth inhibition": 4}
{"MOLECULE": "OCC(O)C(O)C(O)C(O)c1cnn(-c2ccccc2)n1 (stereo unspecified)", "VALUE_UNITS": "%", "growth inhibition": 3}
{"MOLECULE": "N#Cc1ccc2nc3ccc(N)cc3nc2c1", "VALUE_UNITS": "%", "growth inhibition": -18}
{"MOLECULE": "CC1Cc2cc(O)c(O)cc2-c2cc(O)c(O)cc2CC1C (stereo unspecified)", "VALUE_UNITS": "%", "growth inhibition": -9}
{"MOLECULE": "CCC(C)(C)c1ccc(OCCO)c([N+](=O)[O-])c1", "VALUE_UNITS": "%", "growth inhibition": 15}
{"MOLECULE": "COc1nc2nc(SC(CC(=O)O)C(=O)c3ccc(Cl)cc3)[nH]c2c2ccccc12 (stereo unspecified)", "VALUE_UNITS": "%", "growth inhibition": 2}
{"MOLECULE": "NNC(=O)C(=O)N/N=C(/CCC(=O)NCCc1ccccc1)CC(=O)c1ccccc1", "VALUE_UNITS": "%", "growth inhibition": -2}
{"MOLECULE": "Cc1ccc(O)c(C(c2ccc([N+](=O)[O-])cc2)c2cc(C)ccc2O)c1", "VALUE_UNITS": "%", "growth inhibition": 51}
{"MOLECULE": "N=C(N)c1ccc(-c2ccc(-c3ccc(C(=N)N)cc3)o2)cc1", "VALUE_UNITS": "%", "growth inhibition": 1}
{"MOLECULE": "N#CSCCSCc1ccc(Cl)cc1", "VALUE_UNITS": "%", "growth inhibition": 7}
{"MOLECULE": "CCCCCC(CN(C)C)C(O)/C=C\\c1ccccc1 (stereo unspecified)", "VALUE_UNITS": "%", "growth inhibition": -10}
{"MOLECULE": "OCc1ccc2c(c1)CC1(C2)Cc2cc3c(cc2C1O)CCC3 (stereo unspecified)", "VALUE_UNITS": "%", "growth inhibition": 3}
{"MOLECULE": "CCS(=O)(=O)c1ccc(NC(=O)OC2CC(C)CCC2C(C)C)cc1 (stereo unspecified)", "VALUE_UNITS": "%", "growth inhibition": 15}
{"MOLECULE": "Cc1ccccc1CN(C)CCO", "VALUE_UNITS": "%", "growth inhibition": 2}
{"MOLECULE": "O=C(C[N+]12CN3CN(CN(C3)C1)C2)c1ccc(Cl)cc1Cl", "VALUE_UNITS": "%", "growth inhibition": -20}
{"MOLECULE": "CCC[CH2][Sn]([CH2]CCC)([O]C(=O)c1ccc(C)c(N)c1)[O]C(=O)c1ccc(C)c(N)c1", "VALUE_UNITS": "%", "growth inhibition": 96}
{"MOLECULE": "Cc1cccc(NC(=O)Oc2ccc(Cl)c3cccnc23)c1", "VALUE_UNITS": "%", "growth inhibition": 97}
{"MOLECULE": "S=c1[nH]c2ccc(Br)cc2c(=S)n1-c1ccccc1", "VALUE_UNITS": "%", "growth inhibition": 0}
{"MOLECULE": "Cc1cc([N+](=O)[O-])cc(C)c1OC(=O)Nc1c(Cl)cccc1Cl", "VALUE_UNITS": "%", "growth inhibition": 46}
{"MOLECULE": "CCOc1nc(N)nc(C)c1N=Nc1ccc(Cl)cc1", "VALUE_UNITS": "%", "growth inhibition": 14}
